assay: Dark toxicity against human HepG2 cells pretreated for 24 hrs followed by 14 mins dark incubation measured after 1 hr by Alamar blue assay; type: cell-based
Quick list: IC50 at 1 h per entry.

{"ENTRY_SMILES": "CCCCCCN1/C(=C/C2=C([O-])C(=C\\c3ccc4ccccc4[n+]3CCCCCC)/C2=O)Sc2ccccc21", "IC50 at 1 h / nM": 9100}
{"ENTRY_SMILES": "CCCCCCN1/C(=C/C2=C(NC)C(=C\\c3ccc4ccccc4[n+]3CCCCCC)/C2=O)Sc2ccccc21.[I-]", "IC50 at 1 h / nM": 2930}
{"ENTRY_SMILES": "CCCCCCN1/C(=C/C2=C(N)C(=C\\c3ccc4ccccc4[n+]3CCCCCC)/C2=O)Sc2ccccc21", "IC50 at 1 h / nM": 1710}

---

Quick list: IC50 per entry.
tested on: HepG2; test: Phototoxicity against human HepG2 cells pretreated for 24 hrs followed by 3.61 J irradiation for 14 mins measured after 1 hr by Alamar blue assay; assay type: functional, cell-based; details: HepG2, light or radiation study
ASSAY_READOUT: IC50

{"ENTRY_SMILES": "CCCCCCN1/C(=C/C2=C([O-])C(=C\\c3ccc4ccccc4[n+]3CCCCCC)/C2=O)Sc2ccccc21", "TARGET_OF_ASSAY": "HepG2", "ASSAY_READOUT": "IC50", "RESULT": "8.95 µM"}
{"ENTRY_SMILES": "CCCCCCN1/C(=C/C2=C(N)C(=C\\c3ccc4ccccc4[n+]3CCCCCC)/C2=O)Sc2ccccc21", "TARGET_OF_ASSAY": "HepG2", "ASSAY_READOUT": "IC50", "RESULT": "0.86 µM"}
{"ENTRY_SMILES": "CCCCCCN1/C(=C/C2=C(NC)C(=C\\c3ccc4ccccc4[n+]3CCCCCC)/C2=O)Sc2ccccc21.[I-]", "TARGET_OF_ASSAY": "HepG2", "ASSAY_READOUT": "IC50", "RESULT": "0.93 µM"}

---

test system: Caco-2; experiment: Phototoxicity against human Caco2 cells pretreated for 24 hrs followed by 1.81 J irradiation for 7 mins measured after 24 hrs by Alamar blue assay; format: functional, cell-based; settings: Caco-2, light or radiation study
pIC50: −log10 of the molar value.
ASSAY_READOUT: pIC50

{"ENTRY_SMILES": "CCCCCCN1/C(=C/C2=C(N)C(=C\\c3ccc4ccccc4[n+]3CCCCCC)/C2=O)Sc2ccccc21", "QUANTITATIVE_READOUT": 5.86}
{"ENTRY_SMILES": "CCCCCCN1/C(=C/C2=C(NC)C(=C\\c3ccc4ccccc4[n+]3CCCCCC)/C2=O)Sc2ccccc21.[I-]", "QUANTITATIVE_READOUT": 5.94}
{"ENTRY_SMILES": "CCCCCCN1/C(=C/C2=C([O-])C(=C\\c3ccc4ccccc4[n+]3CCCCCC)/C2=O)Sc2ccccc21", "QUANTITATIVE_READOUT": 5.27}

---

Quick list: pIC50 per entry.
test system: Caco-2; test: Phototoxicity against human Caco2 cells pretreated for 24 hrs followed by 3.61 J irradiation for 14 mins measured after 1 hr by Alamar blue assay; format: functional, cell-based; conditions: Caco-2, light or radiation study
pIC50: −log10 of the molar value.
ASSAY_READOUT: pIC50

{"ENTRY_SMILES": "CCCCCCN1/C(=C/C2=C([O-])C(=C\\c3ccc4ccccc4[n+]3CCCCCC)/C2=O)Sc2ccccc21", "ASSAY_READOUT": "pIC50", "READOUT_RELATION": "<", "QUANTITATIVE_READOUT": 5.00}
{"ENTRY_SMILES": "CCCCCCN1/C(=C/C2=C(NC)C(=C\\c3ccc4ccccc4[n+]3CCCCCC)/C2=O)Sc2ccccc21.[I-]", "ASSAY_READOUT": "pIC50", "READOUT_RELATION": "=", "QUANTITATIVE_READOUT": 5.84}
{"ENTRY_SMILES": "CCCCCCN1/C(=C/C2=C(N)C(=C\\c3ccc4ccccc4[n+]3CCCCCC)/C2=O)Sc2ccccc21", "ASSAY_READOUT": "pIC50", "READOUT_RELATION": "=", "QUANTITATIVE_READOUT": 6.02}

---

assay: Dark toxicity against human Caco2 cells pretreated for 24 hrs followed by 14 mins dark incubation measured after 24 hrs by Alamar blue assay; assay type: cell-based; conditions: Caco-2 cells

{"ENTRY_SMILES": "CCCCCCN1/C(=C/C2=C(N)C(=C\\c3ccc4ccccc4[n+]3CCCCCC)/C2=O)Sc2ccccc21", "IC50 at 24 h, nM": 1650}
{"ENTRY_SMILES": "CCCCCCN1/C(=C/C2=C([O-])C(=C\\c3ccc4ccccc4[n+]3CCCCCC)/C2=O)Sc2ccccc21", "IC50 at 24 h, nM": 5800}
{"ENTRY_SMILES": "CCCCCCN1/C(=C/C2=C(NC)C(=C\\c3ccc4ccccc4[n+]3CCCCCC)/C2=O)Sc2ccccc21.[I-]", "IC50 at 24 h, nM": 1270}

---

test: Dark toxicity against human Caco2 cells assessed as cell viability at 0.1 to 1 uM pretreated for 24 hrs followed by 14 mins dark incubation after 1 to 24 hrs by Alamar blue assay relative to control; format: cell-based; details: Caco-2 cells, read-out: Activity

{"ENTRY_SMILES": "CCCCCCN1/C(=C/C2=C(NC)C(=C\\c3ccc4ccccc4[n+]3CCCCCC)/C2=O)Sc2ccccc21.[I-]", "viability at up to 1 µM [%]": 70}

---

test: Dark toxicity against human Caco2 cells assessed as cell viability at 1 uM pretreated for 24 hrs followed by 14 mins dark incubation after 1 to 24 hrs by Alamar blue assay relative to control; format: cell-based; conditions: Caco-2 cells, read-out: Activity

{"ENTRY_SMILES": "CCCCCCN1/C(=C/C2=C(N)C(=C\\c3ccc4ccccc4[n+]3CCCCCC)/C2=O)Sc2ccccc21", "MEASURE_UNIT": "%", "viability at 24 h, 1 µM": 20}

---

test: Dark toxicity against human Caco2 cells assessed as cell viability at 5 to 10 uM pretreated for 24 hrs followed by 14 mins dark incubation measured after 1 to 24 hrs by Alamar blue assay relative to control; format: cell-based; conditions: Caco-2 cells, read-out: Activity
Quick list: viability at up to 10 µM per entry.

{"ENTRY_SMILES": "CCCCCCN1/C(=C/C2=C(NC)C(=C\\c3ccc4ccccc4[n+]3CCCCCC)/C2=O)Sc2ccccc21.[I-]", "viability at up to 10 µM": "0%"}
{"ENTRY_SMILES": "CCCCCCN1/C(=C/C2=C(N)C(=C\\c3ccc4ccccc4[n+]3CCCCCC)/C2=O)Sc2ccccc21", "viability at up to 10 µM": "0%"}
